target: p38α (Homo sapiens, UniProt Q16539); construct: p38 MAP Kinases are recombinant human full-length proteins with an amino-terminal GST fusion; GST (N); experiment: p38 MAP Kinase assay: inhibition of ATF2 phosphorylation, ELISA; settings: ATF2 phosphorylation; read-out: [ENZ] P38 ALPHA, IC50, ELISA
Sequence (Q16539 whole entry, the tested form may be a part): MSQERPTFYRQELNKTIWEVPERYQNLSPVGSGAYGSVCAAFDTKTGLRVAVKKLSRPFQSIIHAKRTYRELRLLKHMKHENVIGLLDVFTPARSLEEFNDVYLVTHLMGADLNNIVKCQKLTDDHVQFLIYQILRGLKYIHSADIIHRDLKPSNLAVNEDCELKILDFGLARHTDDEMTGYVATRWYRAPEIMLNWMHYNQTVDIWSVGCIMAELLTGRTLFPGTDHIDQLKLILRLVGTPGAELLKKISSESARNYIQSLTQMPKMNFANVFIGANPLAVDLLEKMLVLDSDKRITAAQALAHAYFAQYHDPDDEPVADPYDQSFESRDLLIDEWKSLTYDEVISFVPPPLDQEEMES
pIC50: −log10 of the molar value.
RECORDED ENDPOINT: pIC50

Recorded pIC50, per entry:
O=C(Nc1ccc(Oc2ccnc(NCc3ccccc3)n2)c2ccccc12)c1cc(F)cc(N2CCOCC2)c1 [Compound B249]; 7.86
CC1CCN(c2nccc(Oc3ccc(NC(=O)c4cc(F)cc(N5CCCCC5)c4)c4ccccc34)n2)CC1 [Compound B381]; 7.06
O=C(Nc1ccc(OCCN2CCOCC2)c2ccccc12)c1cccc(-c2ccc(Cl)cc2Cl)c1 [Compound B95]; 5.76

[a] O=C(Nc1ccc(Oc2ccnc(NCC3CC3)n2)c2ccccc12)c1cc(F)cc(N2CCCCC2)c1 [Compound B384]
[b] O=C(Nc1ccc(Oc2ccnc(NCC3CCCO3)n2)c2ccccc12)c1cc(F)cc(N2CCOCC2)c1 (centres unmarked) [Compound B327]
I need your help: which of the pair a , b has higher pIC50? Could you answer with the label of the item you picked?
b

[P] CC1CCN(c2cc(C(=O)Nc3ccc(OCCN4CCOCC4)c4ccccc34)ccn2)CC1 [Compound B128]
[Q] CC1CCN(c2nccc(Oc3ccc(NC(=O)c4cc(F)cc(N5CCOCC5)c4)c4ccccc34)n2)CC1 [Compound B335]
Problem: Given the entries P and Q , determine which has the lower reported pIC50. Could you answer with the label of the item you picked?
P
(P: 5.94, Q: 7.65)

* * *

biological target: p38α (Homo sapiens, UniProt Q16539); construct: p38 MAP Kinases are recombinant human full-length proteins with an amino-terminal GST fusion; GST (N); experiment: p38 MAP Kinase assay: inhibition of ATF2 phosphorylation, ELISA; settings: ATF2 phosphorylation; read-out: [ENZ] P38 ALPHA, IC50, ELISA
pIC50: −log10 of the molar value.
RECORDED ENDPOINT: pIC50

Recorded pIC50, per entry:
O=C(Nc1ccc(OCCN2CCOCC2)c2ccccc12)c1cc(N2CCOCC2)nc(N2CCCC2)n1; < 5.00
O=C(Nc1ccc(OCCN2CCOCC2)c2ccccc12)c1cc(F)cc(N2CCC3CCCCC3C2)c1 (stereo not shown); < 5.00
CC(=O)c1ccc(-c2cccc(C(=O)Nc3ccc(OCCN4CCOCC4)c4ccccc34)c2)cc1; < 5.00

Please give the measured pIC50 for this compound: CC(C)(C)OC(=O)Nc1cccc(C(=O)Nc2ccc(OCCN3CCOCC3)c3ccccc23)c1
< 5.00

Please give the measured pIC50 for this compound: N#Cc1cccc(-c2cccc(C(=O)Nc3ccc(OCCN4CCOCC4)c4ccccc34)c2)c1
< 6.00

Please give the measured pIC50 for this compound: O=C(Nc1ccc(OCCN2CCOCC2)c2ccccc12)c1cccc(-c2cc(Cl)cc(Cl)c2)c1
< 4.00

Please give the measured pIC50 for this compound: Cc1cc(C)c(-c2cccc(C(=O)Nc3ccc(OCCN4CCOCC4)c4ccccc34)c2)cc1C
< 5.00

* * *

Reported pIC50 values for a set of molecules
Target: p38α (Homo sapiens)
Construct: p38 MAP Kinases are recombinant human full-length proteins with an amino-terminal GST fusion; GST (N)
Experiment: p38 MAP Kinase assay: inhibition of ATF2 phosphorylation, ELISA
Conditions: ATF2 phosphorylation; read-out: [ENZ] P38 ALPHA, IC50, ELISA
From the text: Compounds of the invention are screened for the ability to inhibit ATF2 phosphorylation by p38 MAP Kinase in vitro. […]
pIC50: −log10 of the molar value.

Recorded pIC50, per entry:
O=C(Nc1ccc(OCCN2CCOCC2)c2ccccc12)c1cn(Cc2ccccc2)c2ccccc12; < 5.00
O=C(Nc1ccc(OCCN2CCOCC2)c2ccccc12)c1cccc2c1Cc1ccccc1-2; < 5.00
O=C(Nc1ccc(OCCN2C(=O)c3ccccc3C2=O)c2ccccc12)c1cc(F)cc(N2CCOCC2)c1; < 5.00
CC(C)(C)C1CCC(Oc2cc(F)cc(C(=O)Nc3ccc(OCc4ccncc4)c4ccccc34)c2)CC1 (stereo not shown); < 5.00

Please give the measured pIC50 for this molecule: CCOc1cccc(-c2cccc(C(=O)Nc3ccc(OCCN4CCOCC4)c4ccccc34)c2)c1
< 5.00

Please give the measured pIC50 for this molecule: Cc1nc(C(=O)Nc2ccc(OCCN3CCOCC3)c3ccccc23)cc(N2CCOCC2)n1
< 5.00

Please give the measured pIC50 for this molecule: O=C(Nc1ccc(OCCN2CCOCC2)c2ccccc12)c1cccc(-c2ccc3c(c2)OCO3)c1
< 5.00

Please give the measured pIC50 for this molecule: Cc1cc(C(=O)Nc2ccc(OCCN3CCOCC3)c3ccccc23)cc(N2CCc3ccccc3C2)n1
< 4.00

Please give the measured pIC50 for this molecule: O=C(Nc1ccc(OCCN2CCOCC2)c2ccccc12)c1cccc(-c2cc(Cl)cc(Cl)c2Cl)c1
< 4.00

Please give the measured pIC50 for this molecule: O=C(Nc1ccc(OCCN2CCCCC2)c2ccccc12)c1ccc(CN2CCOCC2)cc1
< 5.00
